system: Sigma 2 receptor
experimentalDetails: Ability to inhibit [3H](+)-DTG binding to rat liver Sigma receptor type 2 in presence of dextrallorphan
Answer each item with its documented pKi.
Answers are plain numbers, as −log10 of the molar value.

The following compounds have reported results that may help.
{"compound": "CN1CCC2(c3cccc(O)c3)CC(=O)/C(=C/c3ccccc3)C1C2 (stereo in doubt; 2)", "pKi": 7.43}
{"compound": "CN1CCC2(c3cccc(O)c3)CC(=O)/C(=C/c3cccc(Cl)c3)C1C2 (stereo in doubt; (-)-7)", "pKi": 6.91}
{"compound": "CN1CCC2(c3cccc(O)c3)CC(=O)/C(=C/c3ccccc3)C1C2 (stereo in doubt; (-)-2)", "pKi": 6.81}

Your task in this section: give pKi for each listed record.
1. COc1cccc(C23CCN(C)C(C2)/C(=C\c2ccccc2)C(=O)C3)c1 (single isomer, unassigned; (+))
2. CN1CCC2(c3cccc(O)c3)CC(=O)/C(=C/c3cccc(Cl)c3)C1C2 (stereo in doubt; 7)
3. CN1CCC2(c3cccc(O)c3)CC(=O)/C(=C/c3ccc(Cl)c(Cl)c3)C1C2 (single isomer, unassigned; (-))
4. CN1CCC2(c3cccc(O)c3)CC(=O)/C(=C/c3ccc(Cl)cc3)C1C2 (single isomer, unassigned; (-))

1: 7.28; 2: 7.46; 3: 7.45; 4: 7.58

###

system: Delta-type opioid receptor (Rattus norvegicus, UniProt P33533)
Sequence (P33533 whole entry): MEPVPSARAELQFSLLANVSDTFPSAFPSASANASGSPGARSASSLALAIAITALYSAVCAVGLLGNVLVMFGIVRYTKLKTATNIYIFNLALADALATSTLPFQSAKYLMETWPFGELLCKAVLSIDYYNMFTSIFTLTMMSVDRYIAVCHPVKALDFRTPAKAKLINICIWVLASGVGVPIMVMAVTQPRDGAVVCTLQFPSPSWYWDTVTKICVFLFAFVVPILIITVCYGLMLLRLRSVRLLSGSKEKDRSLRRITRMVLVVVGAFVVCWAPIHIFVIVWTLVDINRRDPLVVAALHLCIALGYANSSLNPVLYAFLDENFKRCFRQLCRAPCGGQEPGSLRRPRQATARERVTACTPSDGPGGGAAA
experimentalDetails: Ability to inhibit [3H]DADLE binding to rat brain delta receptor
Answer each item with its documented pKi.
One number for each entry, as −log10 of the molar value.

The following compounds have reported results that may help.
{"compound": "CN1CCC2(c3cccc(O)c3)CC(=O)/C(=C/c3cccc(Cl)c3)C1C2 (stereo in doubt; (-)-7)", "system": "Delta-type opioid receptor (Rattus norvegicus, UniProt P33533)", "pKi": 6.41}
{"compound": "CN1CCC2(c3cccc(O)c3)CC(=O)/C(=C/c3cccc(Cl)c3)C1C2 (stereo in doubt; (+)-7)", "system": "Delta-type opioid receptor (Rattus norvegicus, UniProt P33533)", "pKi": 6.66}
{"compound": "COc1ccc(/C=C2/C(=O)CC3(c4cccc(O)c4)CCN(C)C2C3)cc1 (single isomer, unassigned; (+))", "system": "Delta-type opioid receptor (Rattus norvegicus, UniProt P33533)", "pKi": 6.90}
{"compound": "CN1CCC2(c3cccc(O)c3)CC(=O)CC1C2 (single isomer, unassigned; (+))", "system": "Delta-type opioid receptor (Rattus norvegicus, UniProt P33533)", "pKi": 6.30}
{"compound": "COc1cccc(/C=C2/C(=O)CC3(c4cccc(O)c4)CCN(C)C2C3)c1 (single isomer, unassigned; (+))", "system": "Delta-type opioid receptor (Rattus norvegicus, UniProt P33533)", "pKi": 6.76}

Param readout= pKi; system= Delta-type opioid receptor (Rattus norvegicus, UniProt P33533); entry= CN1CCC2(c3cccc(O)c3)CC(=O)/C(=C/c3cccc(I)c3)C1C2 (stereo not drawn) ; returns value. 6.85

###

experimentalDetails: Ability to inhibit [3H](+)-pentazocine binding to guinea pig brain Sigma receptor type 1
observationType: Ki (nM)
Give bare numbers, in nM.

The following compounds have reported results that may help.
{"compound": "COc1cccc(C23CCN(C)C(C2)/C(=C\\c2ccccc2)C(=O)C3)c1 (stereo in doubt; 10)", "Ki, nM": 138}
{"compound": "CN1CCC2(c3cccc(O)c3)CC(=O)/C(=C/c3ccccc3)C1C2 (stereo in doubt; 2)", "Ki, nM": 23.3}

From here, focus on the item given below.
So what does the record say about Ki for CN1CCC2(c3cccc(O)c3)CC(=O)/C(=C/c3ccc(Cl)c(Cl)c3)C1C2 (stereo in doubt; 3) ? 65.3

###

system: Sigma 2 receptor
experimentalDetails: Ability to inhibit [3H](+)-DTG binding to rat liver Sigma receptor type 2 in presence of dextrallorphan
Ki under 70 nM gets true, anything at or over 70 nM gets false.

Is the reported Ki for COc1cccc(/C=C2/C(=O)CC3(c4cccc(O)c4)CCN(C)C2C3)c1 (single isomer, unassigned; (-)) strictly below 70 nM? true

Would you mind doing CN1CCC2(c3cccc(O)c3)CC(=O)/C(=C/c3ccc(Cl)cc3)C1C2 (stereo in doubt; (+)-5) as well? true

Would you mind doing CN1CCC2(c3cccc(O)c3)CC(=O)/C(=C/C3CC3)C1C2 (stereo not drawn) as well? false

Would you mind doing CN1CCC2(c3cccc(O)c3)CC(=O)/C(=C/c3cccc(I)c3)C1C2 (stereo not drawn) as well? true

Would you mind doing COc1cccc(/C=C2/C(=O)CC3(c4cccc(O)c4)CCN(C)C2C3)c1 (single isomer, unassigned; (+)) as well? true

Would you mind doing CN1CCC2(c3cccc(O)c3)CC(=O)/C(=C/c3ccccc3)C1C2 (single isomer, unassigned; (+)) as well? true

Would you mind doing CN1CCC2(c3cccc(O)c3)CC(=O)/C(=C/c3ccc4ccccc4c3)C1C2 (stereo not drawn) as well? false

###

system: Delta-type opioid receptor (Rattus norvegicus, UniProt P33533)
experimentalDetails: Ability to inhibit [3H]DADLE binding to rat brain delta receptor
Answer each item with its documented Ki.
Numbers only, in nM.

{"compound": "CN1CCC2(c3cccc(O)c3)CC(=O)/C(=C/c3ccc4ccccc4c3)C1C2 (configuration not stated)", "measureUnit": "nM", "readoutNumber": 142}
{"compound": "CN1CCC2(c3cccc(O)c3)CC(=O)/C(=C/c3ccccc3)C1C2 (single isomer, unassigned; (+))", "measureUnit": "nM", "readoutNumber": 735}

From here, focus on the item given below.
So what does the record say about Ki for CN1CCC2(c3cccc(O)c3)CC(=O)/C(=C/c3ccccc3)C1C2 (stereo in doubt; (-)-2) ? 1990

###

Answer each item with its documented Ratio.
Tested on: Sigma 2 receptor
experimentalDetails: Ratio of binding affinity towards guinea-pig brain […] receptor to rat liver sigma-2 receptor
Give bare numbers.

{"molecule": "CN1CCC2(c3cccc(O)c3)CC(=O)/C(=C/c3ccc(Cl)cc3)C1C2 (stereo in doubt; 5)", "readoutNumber": 4}
{"molecule": "COc1cccc(/C=C2/C(=O)CC3(c4cccc(O)c4)CCN(C)C2C3)c1 (single isomer, unassigned; (-))", "readoutNumber": 0.12}
{"molecule": "COc1ccc(/C=C2/C(=O)CC3(c4cccc(O)c4)CCN(C)C2C3)cc1 (stereo in doubt; 4)", "readoutNumber": 0.53}
{"molecule": "CN1CCC2(c3cccc(O)c3)CC(=O)/C(=C/c3ccccc3)C1C2 (stereo in doubt; (-)-2)", "readoutNumber": 0.06}
{"molecule": "COc1cccc(C23CCN(C)C(C2)/C(=C\\c2ccccc2)C(=O)C3)c1 (stereo in doubt; 10)", "readoutNumber": 1.7}
{"molecule": "COc1cccc(/C=C2/C(=O)CC3(c4cccc(O)c4)CCN(C)C2C3)c1 (stereo in doubt; 6)", "readoutNumber": 0.18}
{"molecule": "CN1CCC2(c3cccc(O)c3)CC(=O)/C(=C/c3ccc(Cl)cc3)C1C2 (stereo in doubt; (+)-5)", "readoutNumber": 119}
{"molecule": "COc1cccc(C23CCN(C)C(C2)/C(=C\\c2ccccc2)C(=O)C3)c1 (single isomer, unassigned; (+))", "readoutNumber": 2.8}

Your task in this section: give Ratio for each listed record.
1. CN1CCC2(c3cccc(O)c3)CC(=O)/C(=C/c3cccc(Cl)c3)C1C2 (stereo in doubt; 7)
2. CN1CCC2(c3cccc(O)c3)CC(=O)/C(=C/c3ccc(I)cc3)C1C2 (single isomer, unassigned; (+))
3. CN1CCC2(c3cccc(O)c3)CC(=O)/C(=C/c3ccccc3)C1C2 (stereo in doubt; 2)

1: 1.5; 2: 32; 3: 0.63

Your task in this section: give Ratio for each listed record.
1. CN1CCC2(c3cccc(O)c3)CC(=O)/C(=C/c3ccc4ccccc4c3)C1C2 (stereo not drawn)
2. CN1CCC2(c3cccc(O)c3)CC(=O)/C(=C/c3cccc(Cl)c3)C1C2 (stereo in doubt; (-)-7)

0.21
0.25

###

system: Mu-type opioid receptor (Rattus norvegicus)
Sequence (P33535 whole entry): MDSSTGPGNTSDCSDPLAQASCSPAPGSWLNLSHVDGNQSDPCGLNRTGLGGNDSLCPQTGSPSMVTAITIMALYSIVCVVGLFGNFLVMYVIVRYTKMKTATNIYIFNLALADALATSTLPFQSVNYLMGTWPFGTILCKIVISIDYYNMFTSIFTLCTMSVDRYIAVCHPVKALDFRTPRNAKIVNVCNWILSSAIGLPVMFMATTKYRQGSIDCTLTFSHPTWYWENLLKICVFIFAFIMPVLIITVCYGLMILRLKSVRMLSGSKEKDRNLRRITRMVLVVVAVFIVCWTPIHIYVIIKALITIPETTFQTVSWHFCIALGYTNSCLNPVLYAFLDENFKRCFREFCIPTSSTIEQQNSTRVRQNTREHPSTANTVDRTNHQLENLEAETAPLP
pKi: −log10 of the molar value.
I would appreciate it if you labelled entries 1 when pKi is 8 or higher, otherwise 0.

Worked examples, 5 compounds total:
{"compound": "COc1ccc(/C=C2/C(=O)CC3(c4cccc(O)c4)CCN(C)C2C3)cc1 (single isomer, unassigned; (+))", "category": 1}
{"compound": "COc1ccc(/C=C2/C(=O)CC3(c4cccc(O)c4)CCN(C)C2C3)cc1 (stereo in doubt; 4)", "category": 1}
{"compound": "CN1CCC2(c3cccc(O)c3)CC(=O)CC1C2 (single isomer, unassigned; (+))", "category": 0}
{"compound": "CN1CCC2(c3cccc(O)c3)CC(=O)/C(=C/c3ccc(Cl)c(Cl)c3)C1C2 (single isomer, unassigned; (+))", "category": 1}
{"compound": "COc1cccc(C23CCN(C)C(C2)/C(=C\\c2ccccc2)C(=O)C3)c1 (stereo in doubt; 10)", "category": 0}

Is the recorded value of pKi equal to or greater than 8 for this compound? COc1ccc(/C=C2/C(=O)CC3(c4cccc(O)c4)CCN(C)C2C3)cc1 (single isomer, unassigned; (-)) 0

Would you mind doing COc1cccc(/C=C2/C(=O)CC3(c4cccc(O)c4)CCN(C)C2C3)c1 (single isomer, unassigned; (-)) as well? 0

Would you mind doing CN1CCC2(c3cccc(O)c3)CC(=O)/C(=C/c3cccc(Cl)c3)C1C2 (stereo in doubt; (-)-7) as well? 0

Would you mind doing CN1CCC2(c3cccc(O)c3)CC(=O)/C(=C/c3cccc(Cl)c3)C1C2 (stereo in doubt; 7) as well? 0

Would you mind doing CN1CCC2(c3cccc(O)c3)CC(=O)/C(=C/c3ccc4ccccc4c3)C1C2 (stereo unspecified) as well? 1
